- Test system: YAP/TAZ-TEAD transcription
- measurement_description: Reporter gene assay for measuring the inhibition of YAP/TAZ-TEAD transcription (TEAD-responsive element luciferase reporter in Hek293T cells)
- Type: cell-based
- test_settings: Homo sapiens, HEK-293T, 24 h, Hek293T cells transiently transfected with TEAD-responsive element luciferase reporter; 24 hours incubation
- Procedure: Hek293T cells are cultured in DMEM supplemented with 10% fetal bovine serum, Sodium pyruvate, Sodium bicarbonate, L-glutamine. The cells are harvested and transiently transfected with TEAD-responsive element luciferase reporter. […] The plate was shaken for 10 min at 600 rpm, centrifuged for 1 min at 500 rpm and measured with an Envision reader (PerkinElmer). The amount of relative light units produced by the TEAD reporter is used to calculated percent of inhibition. […]
pIC50: −log10 of the molar value.
Recorded pIC50 by entry

State its pIC50 on YAP/TAZ-TEAD transcription: C=CC(=O)NC1Cc2ccccc2N(c2ccc(C(F)(F)F)nc2)C1 (stereo not shown) [compound 010]
> 6.00

State its pIC50 on YAP/TAZ-TEAD transcription: C=CC(=O)NCC1Cc2ccccc2N(c2cccc(OC)c2)C1 (stereo not shown) [compound 090]
> 6.00

State its pIC50 on YAP/TAZ-TEAD transcription: C=CC(=O)NC1Cc2ccccc2N(c2ccccc2)C1 (stereo not shown) [compound 002]
> 6.00

State its pIC50 on YAP/TAZ-TEAD transcription: C=CC(=O)NC1Cc2ccccc2N(Cc2cccc(C(F)(F)F)c2)C1 (stereo not shown) [compound 182]
> 6.00

State its pIC50 on YAP/TAZ-TEAD transcription: C=CC(=O)NC1Cc2c(Cc3cccc(C#N)c3)cccc2N(c2ccc(C(F)(F)F)cc2)C1 (stereo not shown) [compound 062]
> 6.00

State its pIC50 on YAP/TAZ-TEAD transcription: C=CC(=O)NC1Cc2c(CC(=O)O)cccc2N(c2ccc(C(F)(F)F)cc2)C1 (stereo not shown) [compound 162]
< 4.70
